Reference for the values: patent US20260265233A1

Catalogue of compounds with associated log10 of EC50
molecular target: human RXFP1 (Homo sapiens, UniProt Q9HBX9); assay: hRXFP1 HEK293 cAMP assay (HTRF); conditions: HEK293 cells stably expressing human RXFP1; 30 min at rt; intracellular cAMP by HTRF
endpoint: log10 of EC50 (log10 of the value in nM)

>>> measurement("COc1ccc(C2CCCN(CC(N)=O)C2)cc1C(=O)Nc1c(C(=O)Nc2ccc(F)c(C(F)(F)F)c2)sc2cc(C(F)(F)F)ccc12 (centres unmarked)")
2.78
>>> measurement("COc1ccc(C2CCCN(CCS(C)(=O)=O)CC2)cc1C(=O)Nc1c(C(=O)Nc2ccc(F)c(C(F)(F)F)c2)sc2cc(C(F)(F)F)ccc12 (centres unmarked) [Example 71]")
3.43
>>> measurement("COc1ccc(C2CCCN(CC(O)CO)C2)cc1C(=O)Nc1c(C(=O)Nc2ccc(F)c(C(F)(F)F)c2)sc2cc(C(F)(F)F)ccc12 (centres unmarked) [Example 88]")
3.19
>>> measurement("COc1ccc(C2=NOC(C)(CO)C2)cc1C(=O)Nc1c(C(=O)Nc2ccc(F)c(C(F)(F)F)c2)sc2cc(C(F)(F)F)ccc12 (single isomer, unassigned) [Example 253]")
2.28
>>> measurement("COc1ccc(C2=NOC(CO)C2)cc1C(=O)Nc1c(C(=O)Nc2ccc(F)c(C(F)(F)F)c2)sc2cc(C(F)(F)F)ccc12 (single isomer, unassigned) [Example 250]")
2.45
>>> measurement("COc1ccc(N2CCC(NCCS(C)(=O)=O)C2)cc1C(=O)Nc1c(C(=O)Nc2ccc(F)c(C(F)(F)F)c2)sc2cc(C(F)(F)F)ccc12 (centres unmarked) [Example 67]")
3.11
>>> measurement("COc1ccc(C2=NOC3(CCN(C(=O)CO)CC3)C2)cc1C(=O)Nc1c(C(=O)Nc2ccc(F)c(C(F)(F)F)c2)sc2cc(C(F)(F)F)ccc12")
2.58
>>> measurement("COc1ccc(C2=NOC3CN(CC(C)(C)O)CC23)cc1C(=O)Nc1c(C(=O)Nc2ccc(F)c(C(F)(F)F)c2)sc2cc(C(F)(F)F)ccc12 (single isomer, unassigned) [Example 53]")
1.85
>>> measurement("COc1ncc(C(=O)N2CC3(COC3)C2)cc1C(=O)Nc1c(C(=O)Nc2ccc(F)c(C(F)(F)F)c2)sc2cc(C(F)(F)F)ccc12")
2.85
>>> measurement("COc1ccc(C#CCO)cc1C(=O)Nc1c(C(=O)Nc2ccc(F)c(C(F)(F)F)c2)sc2cc(C(F)(F)F)ccc12")
2.67
>>> measurement("COc1ccc(C2=NOC3CN(C(=O)OC(C)(C)C)CC23)cc1C(=O)Nc1c(C(=O)Nc2ccc(F)c(C(F)(F)F)c2)sc2cc(C(F)(F)F)ccc12 (single isomer, unassigned) [Example 245]")
2.67
>>> measurement("COc1ccc(C2=NOC(C)(CO)C2)cc1C(=O)Nc1c(C(=O)Nc2ccc(F)c(C(F)(F)F)c2)sc2cc(C(F)(F)F)ccc12 (single isomer, unassigned) [Example 254]")
3.01
>>> measurement("COc1ccc(C2CC3(C2)CN(C2COC2)C3)cc1C(=O)Nc1c(C(=O)Nc2ccc(F)c(C(F)(F)F)c2)sc2cc(C(F)(F)F)ccc12")
2.39
>>> measurement("COc1ccc(C(=O)N2CC[C@@H](O)C2)cc1C(=O)Nc1c(C(=O)Nc2ccc(F)c(C(F)(F)F)c2)sc2cc(C(F)(F)F)ccc12")
2.57

---

biological target: human RXFP1 (Homo sapiens, UniProt Q9HBX9); construct: expressed in transfected cells; experiment: hRXFP1 HEK293 cAMP assay (HTRF); format: cell-based; conditions: HEK293 cells stably expressing human RXFP1; 30 min at rt; intracellular cAMP by HTRF
pEC50: −log10 of the molar value.
The label depends only on pEC50: fulfilled if it is at least 6, not fulfilled if it is smaller.

>>> qualitative_label("COc1cc(F)c(C(=O)N2CC(C(C)(C)O)C2)cc1C(=O)Nc1c(C(=O)Nc2ccc(F)c(C(F)(F)F)c2)sc2cc(C(F)(F)F)ccc12 [Example 182]")
"fulfilled"
>>> qualitative_label("COc1ccc(-c2cc(C(=O)O)ccc2F)cc1C(=O)Nc1c(C(=O)Nc2ccc(F)c(C(F)(F)F)c2)sc2ncccc12 [Example 289]")
"not fulfilled"
>>> qualitative_label("COc1ccc(C2CCCN(C(=O)C(C)(C)O)C2)cc1C(=O)Nc1c(C(=O)Nc2ccc(F)c(C(F)(F)F)c2)sc2cc(C(F)(F)F)ccc12 (stereo not shown) [Example 104]")
"fulfilled"

---

Catalogue of compounds with associated EC50
Molecular target: human RXFP1 (Homo sapiens, UniProt Q9HBX9)
Sequence (Q9HBX9 1-757): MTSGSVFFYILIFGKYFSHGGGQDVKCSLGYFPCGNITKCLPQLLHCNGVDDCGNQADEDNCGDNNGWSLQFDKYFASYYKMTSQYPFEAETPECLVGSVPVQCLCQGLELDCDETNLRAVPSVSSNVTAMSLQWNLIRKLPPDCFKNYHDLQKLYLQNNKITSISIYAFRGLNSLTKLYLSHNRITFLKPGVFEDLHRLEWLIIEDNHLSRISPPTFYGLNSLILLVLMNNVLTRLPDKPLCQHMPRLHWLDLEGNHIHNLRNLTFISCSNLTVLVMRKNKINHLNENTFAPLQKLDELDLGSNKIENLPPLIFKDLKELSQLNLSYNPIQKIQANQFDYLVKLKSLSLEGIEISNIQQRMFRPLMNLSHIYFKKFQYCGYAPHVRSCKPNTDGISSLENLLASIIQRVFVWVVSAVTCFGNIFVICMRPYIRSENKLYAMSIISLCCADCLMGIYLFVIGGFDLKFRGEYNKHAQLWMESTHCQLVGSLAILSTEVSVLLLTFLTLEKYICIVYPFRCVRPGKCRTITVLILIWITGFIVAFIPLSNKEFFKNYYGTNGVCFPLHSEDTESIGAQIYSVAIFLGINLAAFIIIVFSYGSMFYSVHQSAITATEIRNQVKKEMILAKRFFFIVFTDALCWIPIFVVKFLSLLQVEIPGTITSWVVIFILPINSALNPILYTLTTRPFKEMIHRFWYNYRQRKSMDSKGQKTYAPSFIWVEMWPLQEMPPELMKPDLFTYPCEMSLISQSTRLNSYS
Experiment: hRXFP1 HEK293 cAMP assay (HTRF)
Details: HEK293 cells stably expressing human RXFP1; 30 min at rt; intracellular cAMP by HTRF
endpoint: EC50 (nM)

>>> measurement("COc1ccc(C2CCCC(O)C2)cc1C(=O)Nc1c(C(=O)Nc2ccc(F)c(C(F)(F)F)c2)sc2cc(C(F)(F)F)ccc12 (single isomer, unassigned) [Example 32]")
718
>>> measurement("COc1ccc(N2CCCC(C(=O)NCCO)C2)cc1C(=O)Nc1c(C(=O)Nc2ccc(F)c(C(F)(F)F)c2)sc2cc(C(F)(F)F)ccc12 (single isomer, unassigned) [Example 230]")
1400
>>> measurement("COc1ccc(N2CCCC(CC(=O)O)C2)cc1C(=O)Nc1c(C(=O)Nc2ccc(F)c(C(F)(F)F)c2)sc2cc(C(F)(F)F)ccc12 (single isomer, unassigned) [Example 65]")
662

---

biological target: human RXFP1 (Homo sapiens, UniProt Q9HBX9); experiment: hRXFP1 HEK293 cAMP assay (HTRF); details: HEK293 cells stably expressing human RXFP1; 30 min at rt; intracellular cAMP by HTRF
endpoint: EC50 (µM)

>>> measurement("COc1ccc(C2=NOC3CC(NC(=O)C(C)(C)O)CC23)cc1C(=O)Nc1c(C(=O)Nc2ccc(F)c(C(F)(F)F)c2)sc2cc(C(F)(F)F)ccc12 (single isomer, unassigned) [Example 265]")
1.14
>>> measurement("COc1ccc(C2CCN(CC(N)=O)C2)cc1C(=O)Nc1c(C(=O)Nc2ccc(F)c(C(F)(F)F)c2)sc2cc(C(F)(F)F)ccc12 (stereo not shown) [Example 155]")
0.902
>>> measurement("COc1ccc(C(=O)NC(C)(C)CO)cc1C(=O)Nc1c(C(=O)Nc2ccc(F)c(C(F)(F)F)c2)sc2cc(C(F)(F)F)ccc12")
0.689
>>> measurement("COc1ccc(C(=O)N2CCC[C@@H](O)C2)cc1C(=O)Nc1c(C(=O)Nc2ccc(F)c(C(F)(F)F)c2)sc2cc(C(F)(F)F)ccc12")
1.14
